The measurements presented in this section are drawn from patent US7666644B2.

Assay type: physicochemical
Conditions: buffer, pH 7.2
Readout: Half-life (h)
Give just the numeric value; h need not be written.

Molecule | Unit label | Half-life
20-8H12: evolved GAT; polypeptide SEQ ID NO:739, gene SEQ ID NO:738 (protein, D_S00341806_GAT20-8H12) MIEVKPINAEDTYELRHRVLRPNQPIEACIFESDLMRGAFHLGGFYGGRLISVASFHQAEHSELQGQKQYQLRGMATLEGYREQKAGSSLVKHAEEILRKRGADLLWCNARTSASGYYKKLGFSEQGEVFDTPPVGPHILMYKRIT | h | 54
401: native GAT polypeptide corresponding to SEQ ID NO: 6 (protein, listed as Bacillus licheniformis, ST401 GAT) MIEVKPINAEDTYEIRHRILRPNQPLEACMYETDLLGGAFHLGGYYRGKLISIASFHKAEHSELEGEEQYQLRGMATLEGYREQKAGSTLIRHAEELLRKKGADLLWCNARTSVSGYYEKLGFSEQGEVYDIPPIGPHILMYKKLT | h | 14

Switching to the query record.
Qu. Note Half-life for the molecule shown: 22-18C5: GAT polypeptide, SEQ ID NO: 795 (protein, D_S00398097_GAT22-18C5) MIEVKPINAEDTYDLRHRVLRPNQPIEACMFESDLTRGAFHLGGFYGGKLISVASFHQAEHSELQGQKQYQLRGVATLEGYREQKAGTSLVKHAEEILRKRGVDLLWCNARTSASGYYRKLGFSEQGEVFDTPPVGPHILMYKRIT
Ans. 43
